Catalogue of compounds with associated pIC50
- TARGET OR TEST SYSTEM: CD38 NAD+ hydrolase activity in NH7-dCas9 cells (Jurkat clone) (Homo sapiens)
- Construct: The assay utilized CD38 expressing NH7-dCas9 cells (Jurkat clone)
- Sequence (P28907 whole entry): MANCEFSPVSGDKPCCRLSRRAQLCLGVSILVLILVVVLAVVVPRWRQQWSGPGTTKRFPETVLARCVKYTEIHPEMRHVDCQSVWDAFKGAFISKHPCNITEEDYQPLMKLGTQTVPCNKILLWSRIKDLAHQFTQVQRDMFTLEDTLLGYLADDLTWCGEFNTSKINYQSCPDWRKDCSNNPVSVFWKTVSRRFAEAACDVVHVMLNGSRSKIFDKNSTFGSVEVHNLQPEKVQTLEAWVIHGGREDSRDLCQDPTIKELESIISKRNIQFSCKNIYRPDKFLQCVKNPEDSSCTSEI
- TEST: Fluorescence-based NAD+ hydrolase activity assay with human T cell line NH7-dCas9 cells-Jurkat clone (Assay 1)
- PARTICULARS: read-out: Assay 1 Arithmetic mean IC50
pIC50: −log10 of the molar value.
READOUT KIND: pIC50

> print(dat)
                                   compound  readout.kind        result
1  COc1cc(NC(=O)c2cccc(-n3ccnc3)n2)ccn1 [Compound 12]         pIC50  7.30 to 9.00
2  Cc1ccc(-n2ccnc2)nc1C(=O)Nc1cccnc1 [Compound 59]         pIC50  7.30 to 9.00
3  Nc1ccc(-n2ccnc2)nc1C(=O)Nc1ccncc1 [Compound 64]         pIC50        > 9.00
4  Cn1cncc1-c1cccc(C(=O)Nc2ccc(C(F)(F)F)nc2)n1 [Compound 43]         pIC50        > 9.00
